# system under test: EGFR (form in the assay not stated) (human, UniProt P00533 25-645, limits assumed)
# measurement notes: ELISA, NEM conjugate 10 nM
Would you mind telling me the reported binding ratio vs parent P54AR4-83v2 of each entry?
One number for each entry, in ratio.

P54AR4-83v2 T81C, NEM conjugate (designed binder, NEM on Cys 81, His-tagged) LPAPKNLVVSEVTEDSARLSWDDPWAFYESFLIQYQESEKVGEAIVLTVPGSERSYDLTGLKPGTEYTVSIYGVHNVYKDCNMRGLPLSAIFTT : 0.5

Dear colleague, could you send me binding ratio vs parent P54AR4-83v2 for each of the items below? Thanks.
1. P54AR4-83v2 V49C, NEM conjugate (designed binder, NEM on Cys 49, His-tagged) LPAPKNLVVSEVTEDSARLSWDDPWAFYESFLIQYQESEKVGEAIVLTCPGSERSYDLTGLKPGTEYTVSIYGVHNVYKDTNMRGLPLSAIFTT
2. P54AR4-83v2 P24C, NEM conjugate (designed binder, NEM on Cys 24, His-tagged) LPAPKNLVVSEVTEDSARLSWDDCWAFYESFLIQYQESEKVGEAIVLTVPGSERSYDLTGLKPGTEYTVSIYGVHNVYKDTNMRGLPLSAIFTT
3. P54AR4-83v2 L86C, NEM conjugate (designed binder, NEM on Cys 86, His-tagged) LPAPKNLVVSEVTEDSARLSWDDPWAFYESFLIQYQESEKVGEAIVLTVPGSERSYDLTGLKPGTEYTVSIYGVHNVYKDTNMRGCPLSAIFTT
4. P54AR4-83v2 I45C, NEM conjugate (designed binder, NEM on Cys 45, His-tagged) LPAPKNLVVSEVTEDSARLSWDDPWAFYESFLIQYQESEKVGEACVLTVPGSERSYDLTGLKPGTEYTVSIYGVHNVYKDTNMRGLPLSAIFTT
5. P54AR4-83v2 S89C, NEM conjugate (designed binder, NEM on Cys 89, His-tagged) LPAPKNLVVSEVTEDSARLSWDDPWAFYESFLIQYQESEKVGEAIVLTVPGSERSYDLTGLKPGTEYTVSIYGVHNVYKDTNMRGLPLCAIFTT
6. P54AR4-83v2 V12C, NEM conjugate (designed binder, NEM on Cys 12, His-tagged) LPAPKNLVVSECTEDSARLSWDDPWAFYESFLIQYQESEKVGEAIVLTVPGSERSYDLTGLKPGTEYTVSIYGVHNVYKDTNMRGLPLSAIFTT
7. P54AR4-83v2 V46C, NEM conjugate (designed binder, NEM on Cys 46, His-tagged) LPAPKNLVVSEVTEDSARLSWDDPWAFYESFLIQYQESEKVGEAICLTVPGSERSYDLTGLKPGTEYTVSIYGVHNVYKDTNMRGLPLSAIFTT
8. P54AR4-83v2 E11C, NEM conjugate (designed binder, NEM on Cys 11, His-tagged) LPAPKNLVVSCVTEDSARLSWDDPWAFYESFLIQYQESEKVGEAIVLTVPGSERSYDLTGLKPGTEYTVSIYGVHNVYKDTNMRGLPLSAIFTT

1: 0.96; 2: 0.45; 3: 0.77; 4: 0.91; 5: 0.97; 6: 0.87; 7: 0.61; 8: 0.9
